# Target: G-protein coupled receptor 35 (Homo sapiens) (UniProt Q9HC97)
# Sequence (Q9HC97 whole entry, looked up): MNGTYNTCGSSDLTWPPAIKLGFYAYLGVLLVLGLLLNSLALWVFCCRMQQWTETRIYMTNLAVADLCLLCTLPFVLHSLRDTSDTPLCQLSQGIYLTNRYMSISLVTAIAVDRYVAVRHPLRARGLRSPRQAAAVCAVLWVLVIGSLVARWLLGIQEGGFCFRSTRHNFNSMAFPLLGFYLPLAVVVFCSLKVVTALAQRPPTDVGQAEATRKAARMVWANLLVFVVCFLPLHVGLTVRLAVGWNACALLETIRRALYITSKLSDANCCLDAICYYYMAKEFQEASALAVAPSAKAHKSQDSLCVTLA
# Experiment: inhibition of zaprinast-stimulated GPR35 beta-arrestin translocation – imaging, U2OS, beta-arrestin-GFP, zaprinast agonist, primary screen (AID 2058)
# Setup Conditions: zaprinast antagonism, at 10 µM, stronger effect = higher value
Among all 290,000 compounds or so, about 150 (0.052%) were called active. The entries come from a sample that favours actives as a whole. Measured potencies and affinities stand elsewhere.
In this section, each of the molecules is paired with its reported inhibition.
Endpoint: inhibition (%)

* COc1ccc(C2=NOC(C(=O)Nc3cccc(O)c3)C2)cc1 (stereo not drawn) | -13.8
* COc1ccc(C(=O)Nc2ccc(Cl)cc2C(=O)NCc2ccco2)cc1 | 14
* CCOC(=O)CN1CC23C=CC(O2)C(C(=O)NCc2ccccc2OC)C3C1=O (stereo not drawn) | 13.9

----------
# Target: G-protein coupled receptor 35 (Homo sapiens)
# Experiment: inhibition of zaprinast-stimulated GPR35 beta-arrestin translocation – imaging, U2OS, beta-arrestin-GFP, zaprinast agonist, primary screen (AID 2058)
# Setup Conditions: zaprinast antagonism, at 10 µM
The whole screen tested about 290,000 compounds, of which about 150 (0.052%) were called active.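 How the source made its calls: active means inhibition of at least 50% with at least 30 cells and total cytoplasm GFP at most 10,000,000; inconclusive means under 30 cells or total GFP of 10,000,000 plus; inactive means the rest.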 For the sample, actives were picked, then their nearest neighbours and some compounds at random. Measured potencies and affinities stand elsewhere.
Labels: 1.0 for active, 0.0 for inactive

* C=CCCCCCCCCc1nc(SCC(C)=O)n[nH]1 | 0.0
* O=C(/C=C\c1ccco1)c1ccc(NC(=O)c2ccco2)cc1 | 0.0
* O=C(Nc1nc2ccc(Cl)cc2s1)c1ccc(N2CCCCC2)c([N+](=O)[O-])c1 | 0.0
* COc1ccc(S(=O)(=O)N2CCN(c3ccccn3)CC2)cc1OC | 0.0
* CCOC(=O)CC1C(=O)NCCN1C1CCCC1 (stereo not drawn) | 0.0
* CN(C)C=NC(=O)c1ccc(N2CCN(c3ncc(C(F)(F)F)cc3Cl)CC2)cc1 | 0.0
* CC(C)[C@H](Nc1ccc(S(=O)(=O)N2CCOCC2)cc1[N+](=O)[O-])C(=O)OCC(=O)N(C(C)C)C(C)C | 0.0
* Cc1cc(-c2nn(-c3ccccc3F)cc2CN2CCC(O)CC2)c(C)s1 | 0.0
* COc1ccc2c(c1)NC(c1cc(Cl)cc(Cl)c1O)c1cccn1-2 (stereo not drawn) | 0.0
* O=c1[nH]c(CN2CCCC2)nc2sc3c(c12)CCC3 | 0.0
* CCN1C(=O)/C(=C/C=C2/Sc3ccccc3N2CCO)SC1=S | 0.0
* O=C(CCCN1C(=O)/C(=C/c2cccs2)SC1=S)Nc1ccc(O)c(C(=O)O)c1 | 1.0
* CC(C)c1ccc(C(=O)NC(=S)Nc2ccc3[nH]c(=O)[nH]c3c2)cc1 | 0.0
* O=c1[nH]cnc2sc3c(c12)CN(Cc1ccccc1)CC3 | 0.0
* CCOc1cccc(/C=C(/C#N)c2nc3ccccc3[nH]2)c1OCC(=O)O | 0.0
* COc1c(S(=O)(=O)Nc2cccnc2)ccc(Cl)c1Cl | 0.0
* O=C(CCN1C(=O)S/C(=C\c2ccc(Cl)cc2)C1=O)Nc1ccc(C(=O)O)cc1 | 0.0
* COc1cc(/C=C(\C#N)c2nc3ccc(C)cc3[nH]2)c([N+](=O)[O-])cc1OC | 0.0
* CC1=C(C(=O)Nc2ccc(Cl)cc2C(=O)N2CCC(C(N)=O)CC2)SCCO1 | 0.0
* CCCC(=O)N1CCN(c2nc3c(OC)ccc(Cl)c3s2)CC1 | 0.0
* Cc1cc(=O)cc(C)n1-c1ccc(Cl)cc1 | 0.0
* O=C1CC(c2ccccc2)N1c1ccccc1 (stereo not drawn) | 0.0
* NC1=NC(=O)C2(COC(c3cccnc3)OC2)S1 (stereo not drawn) | 0.0
* NS(=O)(=O)c1cccc(C(=O)NC2CCSc3ccccc32)c1 (stereo not drawn) | 0.0
* O=C(NCC1CC1)Nc1ccccc1 | 0.0
* Cc1ccc(C)c(NC(=O)Nc2ccc3c(c2)OCO3)c1 | 0.0
* CC(=O)Nc1ccc(C(=O)/C=C/c2ccco2)cc1 | 0.0
* O=C(CSc1nc2cc(Cl)ccc2c(=O)n1Cc1ccco1)Nc1ccc(S(=O)(=O)N2CCOCC2)cc1 | 0.0
* Cc1ccc(C(=O)C(C)OC(=O)c2cc3cc([N+](=O)[O-])ccc3oc2=O)cc1 (stereo not drawn) | 0.0
* Cc1cc(-c2nn(-c3ccccc3F)cc2CN(C)CC(O)CO)c(C)s1 (stereo not drawn) | 1.0
* CCN1C(=O)/C(=C/C=C2\N(CC)c3cc(S(=O)(=O)N(C)C)ccc3N2c2ccccc2)SC1=S | 1.0
* O=S(=O)(Nc1nc2ccccc2nc1Cl)c1ccc(Cl)cc1 | 0.0
* Cn1cc(/C=C/C(=O)N2CCCC(C(=O)c3ccc(C(C)(C)C)cc3)C2)cn1 (stereo not drawn) | 0.0
* CCOC(=O)N1CCN(C(=O)COC(=O)c2ccc(O)cc2O)CC1 | 0.0
* Cc1ccc2nc(/C(C#N)=C/c3ccccc3C(=O)O)[nH]c2c1 | 0.0
* O=C1/C(=C/c2ccc(O)c([N+](=O)[O-])c2)SC(=S)N1Cc1ccccc1 | 0.0
* O=C(Nc1ccc(S(=O)(=O)Nc2ccccc2)cc1)c1ccc(CN2CCOCC2)cc1 | 0.0
* COC(=O)c1cc(NC(=O)c2ccccc2)c(=O)oc1C | 0.0

Cited source: PubChem BioAssay AID2058
